tested on: MDA-MB-231; assay: Antiproliferative activity against human MDA-MB-231 cells incubated for 48 hrs by MTT assay; format: functional, cell-based; details: MDA-MB-231, 48 h
PROPERTY_LABEL: IC50

Cc1ncsc1-c1ccc([C@H](C)NC(=O)[C@@H]2C[C@@H](O)CN2C(=O)[C@@H](NC(=O)CCCCc2cn(CCOCCn3c(=O)c(-c4ccc(Cl)cc4Cl)cc4cnc(NC5CC5)nc43)nn2)C(C)(C)C)cc1 35.8 µM
Cc1ncsc1-c1ccc([C@H](C)NC(=O)[C@@H]2C[C@@H](O)CN2C(=O)[C@@H](NC(=O)CCCc2cn(CCCCCCn3c(=O)c(-c4ccc(Cl)cc4Cl)cc4cnc(NC5CC5)nc43)nn2)C(C)(C)C)cc1 > 50 µM

Query: Consider the molecule shown here: "Cc1ncsc1-c1ccc([C@H](C)NC(=O)[C@@H]2C[C@@H](O)CN2C(=O)[C@@H](NC(=O)CCCCc2cn(CCCCn3c(=O)c(-c4ccc(Cl)cc4Cl)cc4cnc(NC5CC5)nc43)nn2)C(C)(C)C)cc1" What is its recorded IC50?
Reply: > 50 µM
